Tested on: A549
assay explanation: Cytotoxicity against human A549 cells at 100 uM after 48 hrs by MTT assay
Format: functional
condition: A549, 48 h

{"compound": "CCCCC/C=C\\C/C=C\\CCCCCCCC(=O)OCCn1c(=O)c(F)cn([C@H]2CCCO2)c1=O", "inhibition at 100 µM": "11%"}
{"compound": "CCCCC/C=C\\C/C=C\\C/C=C\\C/C=C\\CCCC(=O)OCCn1c(=O)c(F)cn([C@H]2CCCO2)c1=O", "inhibition at 100 µM": "33.8%"}
{"compound": "CCCCCCCC/C=C\\CCCCCCCC(=O)OCCn1c(=O)c(F)cn([C@H]2CCCO2)c1=O", "inhibition at 100 µM": "4.8%"}
{"compound": "O=c1[nH]c(=O)n(C2CCCO2)cc1F (centres undefined) [TEGAFUR]", "inhibition at 100 µM": "12.7%"}
